- Test system: 616215-338-R-J1-PDC complex spheroid viability;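 further: spheroids exposed to compounds for one week before readout; percent viability relative to DMSO vehicle wells taken as 100%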
- METHOD_SUMMARY: Anticancer human tumor 616215-338-R-J1-PDC patient-derived colon adenocarcinoma cell line growth inhibition [POLQ]
- MEASUREMENT_PARAMETERS: second compound 1 µM; first compound 0.0316 µM; hits give low values
- Experimental: Multicellular complex tumor spheroid response to Polymerase (POL) inhibitors (novobiocin, ART-558, RP6685) in combination with a variety of drugs and investigational agents in selected tumor cell lines The POL inhibitors (novobiocin, ART-558, and RP6685) were evaluated both individually and in combination with standard of care and investigational anticancer small molecules within a complex spheroid model of solid tumors. . […]

MOLECULE: CC1COCCN1c1cc(C2(S(C)(=N)=O)CC2)nc(-c2ccnc3[nH]ccc23)n1 (stereo not given) + Cc1cccc(N(C)C(=O)C2C(O)CCN2c2nc(C)cc(C(F)(F)F)c2C#N)c1
viability, T/C [%]: 113

MOLECULE: CCc1cc2c(N3CCc4c(cc(Cn5ccnc5)cc4-c4cn(C)nc4C(F)(F)F)C3=O)cc(C)nc2c(OC)n1 + COC1C(OC(N)=O)C(O)C(Oc2ccc3c(O)c(NC(=O)c4ccc(O)c(CC=C(C)C)c4)c(=O)oc3c2C)OC1(C)C
viability, T/C [%]: 113

MOLECULE: CCCS(=O)(=O)Nc1ccc(F)c(C(=O)c2c[nH]c3ncc(-c4ccc(Cl)cc4)cc23)c1F + Nc1ccc(C#CCN(C(=O)Cc2ncc(C(F)(F)F)cc2C(F)(F)F)c2ccc(F)cc2)nn1
viability, T/C [%]: 112

MOLECULE: CC1COCCN1c1cc(-c2ccnn2C)c2ccnc(-c3ccn[nH]3)c2n1 (stereo not given) + Cc1cccc(N(C)C(=O)C2C(O)CCN2c2nc(C)cc(C(F)(F)F)c2C#N)c1
viability, T/C [%]: 101

MOLECULE: C=CC(=O)N1CCN(c2nc(=O)n(-c3c(C)ccnc3C(C)C)c3nc(-c4c(O)cccc4F)c(F)cc23)C(C)C1 (stereo not given) + Nc1ccc(C#CCN(C(=O)Cc2ncc(C(F)(F)F)cc2C(F)(F)F)c2ccc(F)cc2)nn1
viability, T/C [%]: 96.3

// data source = PubChem BioAssay AID1963843
